For each entry below, report its pIC50 value.
- Target or system: Ephrin type-B receptor 4 (Homo sapiens)
- Sequence (P54760 whole entry, the tested form may be a part): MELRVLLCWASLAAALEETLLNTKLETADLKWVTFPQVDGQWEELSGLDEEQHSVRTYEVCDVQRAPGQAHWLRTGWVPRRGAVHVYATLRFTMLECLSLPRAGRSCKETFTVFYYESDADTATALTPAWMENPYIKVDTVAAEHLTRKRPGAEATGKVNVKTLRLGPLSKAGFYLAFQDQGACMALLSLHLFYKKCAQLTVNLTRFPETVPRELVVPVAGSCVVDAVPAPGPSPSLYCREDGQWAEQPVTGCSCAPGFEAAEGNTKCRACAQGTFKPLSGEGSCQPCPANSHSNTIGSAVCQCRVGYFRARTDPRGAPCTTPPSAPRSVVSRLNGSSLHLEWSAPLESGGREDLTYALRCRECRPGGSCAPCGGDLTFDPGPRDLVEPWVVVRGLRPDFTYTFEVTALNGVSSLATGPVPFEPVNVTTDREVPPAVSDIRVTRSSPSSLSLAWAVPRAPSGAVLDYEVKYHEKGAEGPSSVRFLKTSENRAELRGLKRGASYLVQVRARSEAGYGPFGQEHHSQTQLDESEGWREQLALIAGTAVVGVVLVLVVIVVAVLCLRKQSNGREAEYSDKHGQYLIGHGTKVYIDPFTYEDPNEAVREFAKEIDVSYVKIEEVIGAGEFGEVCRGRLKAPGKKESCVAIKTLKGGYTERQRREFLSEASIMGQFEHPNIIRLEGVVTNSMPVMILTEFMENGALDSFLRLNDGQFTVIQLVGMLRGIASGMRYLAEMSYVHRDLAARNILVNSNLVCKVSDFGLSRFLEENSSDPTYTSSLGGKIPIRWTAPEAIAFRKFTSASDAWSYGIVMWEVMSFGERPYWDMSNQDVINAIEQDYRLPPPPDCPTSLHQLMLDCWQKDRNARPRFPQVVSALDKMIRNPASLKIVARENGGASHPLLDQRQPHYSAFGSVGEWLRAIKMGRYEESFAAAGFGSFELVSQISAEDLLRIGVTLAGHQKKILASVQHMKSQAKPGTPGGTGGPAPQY
- Protocol details: Inhibition of recombinant human N-terminal His6-tagged EphB4 kinase domain (E605 to E890 residues) expressed in baculovirus using poly-AEKY as substrate after 150 mins in presence of gamma33P-ATP by liquid scintillation spectrometry
pIC50: −log10 of the molar value.

Give pIC50 for each of the items listed below.
1. CCNC(=NC#N)N1CCOC(COc2cc3ncnc(Nc4ccc(Cl)c(Cl)c4)c3cc2OC)C1 (centres undefined)
2. COc1cc2c(Nc3ccc(Br)c(Cl)c3)ncnc2cc1O[C@H]1CO[C@H]2[C@@H]1OC[C@@H]2N

-- reply
> 7.30
6.00 to 7.30

The following molecules each have a reported value; give each one's pIC50.
1. COc1cc2c(Nc3ccc(Cl)c(Cl)c3F)ncnc2cc1OC[C@H]1CN2CCOC[C@H]2CO1
2. COc1cc2c(Nc3ccc(Br)c(Cl)c3F)ncnc2cc1OC[C@H]1CN2CCOC[C@H]2CO1

-- reply
["> 7.30", "6.00 to 7.30"]

Value source: ChEMBL document CHEMBL3882729
